Values were extracted from a melting point compilation (Tetko et al.).

Collected melting point values appear next to each entry.

As a guide, the following entries are already answered.
> print(dat)
                                 compound         result
1              CCCc1ccc2c(c1)C(=O)C(=O)N2  104 to 106 °C
2                       OCc1ccc(O)c(Cl)c1    85 to 87 °C
3                   Cc1cc(Sc2ncccn2)ccc1N  126 to 128 °C
4  CC(=O)OC(OC(C)=O)c1ccc(S(=O)(=O)Cl)cc1  109 to 111 °C
5              CC(=O)c1sc2nc(C)cc(C)c2c1N  174 to 176 °C

Quick note, melting point for Cc1cc(C(=O)CCl)c(C)n1Cc1ccc(F)cc1 landed at 94 to 96 °C

Quick note, melting point for CC(Cl)C(=O)N1CCN(c2ncccn2)CC1 (stereo not drawn) landed at 96 to 98 °C

Quick note, melting point for OCC(c1ccc(Br)cc1)N1CCNCC1 (stereo not drawn) landed at 109 to 111 °C

Quick note, melting point for N#Cc1ccc(N2C(=O)NC(CCC(=O)O)C2=O)cc1 (stereo not drawn) landed at 220 to 222 °C

Quick note, melting point for Nc1cnn(-c2ccncc2)c1 landed at 152 to 154 °C

Quick note, melting point for N#CCNC(=O)c1ccc(Br)cc1 landed at 170 to 172 °C

Quick note, melting point for CC(=O)c1ccc(-c2ccc(C(F)(F)F)cc2)s1 landed at 127 to 129 °C
